The following compounds are shown together with reported relative viability values.
# System: NCI-H3122
# experiment description: relative viability (nuclei count vs DMSO), 5 days (fraction); higher = more cells survive
# condition parameters: first compound 0.000632 µM
No unit in the answer, please; the number alone is enough.

| compound | relative viability |
| --- | --- |
| CC(=O)O[C@@]12CO[C@@H]1C[C@H](O)[C@@]1(C)C(=O)[C@H](O)C3=C(C)[C@@H](OC(=O)[C@H](O)[C@@H](NC(=O)OC(C)(C)C)c4ccccc4)C[C@@](O)([C@@H](OC(=O)c4ccccc4)[C@H]21)C3(C)C [Docetaxel] + Cc1cc(Nc2cc(N3CCN(C)CC3)nc(Sc3ccc(NC(=O)C4CC4)cc3)n2)n[nH]1 [Tozasertib] (partner 0.1 µM) | 0.278 |

Find relative viability (NCI-H3122) for the entry CC(=O)O[C@@]12CO[C@@H]1C[C@H](O)[C@@]1(C)C(=O)[C@H](O)C3=C(C)[C@@H](OC(=O)[C@H](O)[C@@H](NC(=O)OC(C)(C)C)c4ccccc4)C[C@@](O)([C@@H](OC(=O)c4ccccc4)[C@H]21)C3(C)C [Docetaxel] + Nc1nc2[nH]cc(CCc3ccc(C(=O)N[C@@H](CCC(=O)O)C(=O)O)cc3)c2c(=O)[nH]1 [Pemetrexed] (partner 0.2 µM)
0.196

###

Known relative viability of a selection of compounds
# Test system: LC-2-ad
# experiment description: relative viability (nuclei count vs DMSO), 5 days (fraction); higher = more cells survive
# condition parameters: first compound 0.000632 µM
Give the figure only, with no unit attached.

Below, each entry is followed by its recorded relative viability result.
| compound | quantity name | observed result |
| --- | --- | --- |
| CC(=O)O[C@@]12CO[C@@H]1C[C@H](O)[C@@]1(C)C(=O)[C@H](O)C3=C(C)[C@@H](OC(=O)[C@H](O)[C@@H](NC(=O)OC(C)(C)C)c4ccccc4)C[C@@](O)([C@@H](OC(=O)c4ccccc4)[C@H]21)C3(C)C [Docetaxel] + CS(=O)(=O)CCNCc1ccc(-c2ccc3ncnc(Nc4ccc(OCc5cccc(F)c5)c(Cl)c4)c3c2)o1 [Lapatinib] (partner 2 µM) | relative viability | 0.296 |
| CC(=O)O[C@@]12CO[C@@H]1C[C@H](O)[C@@]1(C)C(=O)[C@H](O)C3=C(C)[C@@H](OC(=O)[C@H](O)[C@@H](NC(=O)OC(C)(C)C)c4ccccc4)C[C@@](O)([C@@H](OC(=O)c4ccccc4)[C@H]21)C3(C)C [Docetaxel] + CC1(C)CCC(c2ccc(Cl)cc2)=C(CN2CCN(c3ccc(C(=O)NS(=O)(=O)c4ccc(N[C@H](CCN5CCOCC5)CSc5ccccc5)c(S(=O)(=O)C(F)(F)F)c4)cc3)CC2)C1 [Navitoclax] (partner 0.5 µM) | relative viability | 0.18 |

// below: relative viability requested for another compound
Query (compound): CC(=O)O[C@@]12CO[C@@H]1C[C@H](O)[C@@]1(C)C(=O)[C@H](O)C3=C(C)[C@@H](OC(=O)[C@H](O)[C@@H](NC(=O)OC(C)(C)C)c4ccccc4)C[C@@](O)([C@@H](OC(=O)c4ccccc4)[C@H]21)C3(C)C [Docetaxel] + Cc1nc(NC(=O)N2CCC[C@H]2C(N)=O)sc1-c1ccnc(C(C)(C)C(F)(F)F)c1 [Alpelisib] (partner 2 µM) ; field requested: relative viability
0.174

###

# Test system: LC-2-ad
# experiment description: relative viability (nuclei count vs DMSO), 5 days (fraction); higher = more cells survive
# condition parameters: first compound 50 µM
Measured relative viability of individual entries

Example cases with answers are listed next.
| compound | observed result |
| --- | --- |
| O=C(O)CCCCC(CCSCc1ccccc1)SCc1ccccc1 (stereo not given) [CPI-613] + CC(C)C[C@H](NC(=O)[C@H](Cc1ccccc1)NC(=O)c1cnccn1)B(O)O [Bortezomib] (partner 0.002 µM) | 0.979 |
| O=C(O)CCCCC(CCSCc1ccccc1)SCc1ccccc1 (stereo not given) [CPI-613] + NC(=O)Nc1cc(-c2cccc(F)c2)sc1C(=O)N[C@H]1CCCNC1 [AZD7762] (partner 0.2 µM) | 0.825 |
| O=C(O)CCCCC(CCSCc1ccccc1)SCc1ccccc1 (stereo not given) [CPI-613] + C[C@]1(O)C[C@@H](c2nc(-c3ccc4ccc(-c5ccccc5)nc4c3)c3c(N)nccn32)C1 [Linsitinib] (partner 1 µM) | 0.738 |
| O=C(O)CCCCC(CCSCc1ccccc1)SCc1ccccc1 (stereo not given) [CPI-613] + CCNC(=O)c1noc(-c2cc(C(C)C)c(O)cc2O)c1-c1ccc(CN2CCOCC2)cc1 [Luminespib] (partner 0.01 µM) | 0.847 |

Quick one: relative viability for O=C(O)CCCCC(CCSCc1ccccc1)SCc1ccccc1 (stereo not given) [CPI-613] + Cc1nc(NC(=O)N2CCC[C@H]2C(N)=O)sc1-c1ccnc(C(C)(C)C(F)(F)F)c1 [Alpelisib] (partner 2 µM) ?
0.8

###

Consider the following compounds and their measured relative viability readings.
# Test system: COR-L23
# experiment description: relative viability (nuclei count vs DMSO), 5 days (fraction); higher = more cells survive
# condition parameters: first compound 158.11 µM
Keep it simple and answer with nothing but the number.

| compound | relative viability |
| --- | --- |
| O=C(O)CCCCC(CCSCc1ccccc1)SCc1ccccc1 (stereo not given) [CPI-613] + CS(=O)(=O)CCNCc1ccc(-c2ccc3ncnc(Nc4ccc(OCc5cccc(F)c5)c(Cl)c4)c3c2)o1 [Lapatinib] (partner 2 µM) | 0.459 |
| O=C(O)CCCCC(CCSCc1ccccc1)SCc1ccccc1 (stereo not given) [CPI-613] + Cc1cc(Nc2cc(N3CCN(C)CC3)nc(Sc3ccc(NC(=O)C4CC4)cc3)n2)n[nH]1 [Tozasertib] (partner 0.1 µM) | 0.11 |
| O=C(O)CCCCC(CCSCc1ccccc1)SCc1ccccc1 (stereo not given) [CPI-613] + CC(=O)Nc1cccc(-n2c(=O)n(C3CC3)c(=O)c3c(Nc4ccc(I)cc4F)n(C)c(=O)c(C)c32)c1 [Trametinib] (partner 0.02 µM) | 0.198 |
| O=C(O)CCCCC(CCSCc1ccccc1)SCc1ccccc1 (stereo not given) [CPI-613] + CCNC(=O)c1noc(-c2cc(C(C)C)c(O)cc2O)c1-c1ccc(CN2CCOCC2)cc1 [Luminespib] (partner 0.01 µM) | 0.108 |

For the next question, use this compound.
Query (compound): O=C(O)CCCCC(CCSCc1ccccc1)SCc1ccccc1 (stereo not given) [CPI-613] + N=C(N)NC(=N)NCCc1ccccc1 [Phenformin] (partner 250 µM) ; field requested: relative viability
0.199

###

# Test system: BEN
# experiment description: relative viability (nuclei count vs DMSO), 5 days (fraction); higher = more cells survive
# condition parameters: first compound 0.5 µM
quantity name: relative viability
// return just the number, without any unit appended

Some compounds with recorded relative viability:
| compound | relative viability |
| --- | --- |
| COc1cc2nccc(Oc3ccc(NC(=O)Nc4cc(C)on4)c(Cl)c3)c2cc1OC [Tivozanib] + CC(=O)Nc1cccc(-n2c(=O)n(C3CC3)c(=O)c3c(Nc4ccc(I)cc4F)n(C)c(=O)c(C)c32)c1 [Trametinib] (partner 0.02 µM) | 1 |
| COc1cc2nccc(Oc3ccc(NC(=O)Nc4cc(C)on4)c(Cl)c3)c2cc1OC [Tivozanib] + COc1cc2c(Oc3ccc(NC(=O)C4(C(=O)Nc5ccc(F)cc5)CC4)cc3F)ccnc2cc1OCCCN1CCOCC1 [Foretinib] (partner 0.25 µM) | 0.456 |

If you can, please state the reported relative viability value of Nc1ccn([C@@H]2O[C@H](CO)[C@@H](O)[C@@H]2O)c(=O)n1 [Cytarabine] + CC(=O)c1c(C)c2cnc(Nc3ccc(N4CCNCC4)cn3)nc2n(C2CCCC2)c1=O [Palbociclib] (partner 0.5 µM) .
0.286

Given the compound COc1cc2nccc(Oc3ccc(NC(=O)Nc4cc(C)on4)c(Cl)c3)c2cc1OC [Tivozanib] + C[C@]1(O)C[C@@H](c2nc(-c3ccc4ccc(-c5ccccc5)nc4c3)c3c(N)nccn32)C1 [Linsitinib] (partner 1 µM) , what is its reported relative viability?
0.912

###

# System: NCI-H661
# experiment description: relative viability (nuclei count vs DMSO), 5 days (fraction); higher = more cells survive
# condition parameters: first compound 0.05 µM
Catalogue of relative viability readings, one per entry.
Keep the answer to the number alone.

Would you please look over these solved cases?
| compound | relative viability |
| --- | --- |
| Nc1ccn([C@@H]2O[C@H](CO)[C@@H](O)[C@@H]2O)c(=O)n1 [Cytarabine] + CC(C)C[C@H](NC(=O)[C@H](Cc1ccccc1)NC(=O)c1cnccn1)B(O)O [Bortezomib] (partner 0.002 µM) | 0.596 |
| COc1cc2nccc(Oc3ccc(NC(=O)Nc4cc(C)on4)c(Cl)c3)c2cc1OC [Tivozanib] + Cc1nc(Nc2ncc(C(=O)Nc3c(C)cccc3Cl)s2)cc(N2CCN(CCO)CC2)n1 [Dasatinib] (partner 0.075 µM) | 0.95 |
| Nc1ccn([C@@H]2O[C@H](CO)[C@@H](O)[C@@H]2O)c(=O)n1 [Cytarabine] + Cc1cc(Nc2cc(N3CCN(C)CC3)nc(Sc3ccc(NC(=O)C4CC4)cc3)n2)n[nH]1 [Tozasertib] (partner 0.1 µM) | 0.351 |
| COc1cc2nccc(Oc3ccc(NC(=O)Nc4cc(C)on4)c(Cl)c3)c2cc1OC [Tivozanib] + O=C(CCCCCCC(=O)Nc1ccccc1)NO [Vorinostat] (partner 1 µM) | 0.789 |
| Nc1ccn([C@@H]2O[C@H](CO)[C@@H](O)[C@@H]2O)c(=O)n1 [Cytarabine] + CC(=O)c1c(C)c2cnc(Nc3ccc(N4CCNCC4)cn3)nc2n(C2CCCC2)c1=O [Palbociclib] (partner 0.5 µM) | 0.377 |

Test system NCI-H661; read-out relative viability; what value for Nc1ccn([C@@H]2O[C@H](CO)[C@@H](O)[C@@H]2O)c(=O)n1 [Cytarabine] + Cc1nc(Nc2ncc(C(=O)Nc3c(C)cccc3Cl)s2)cc(N2CCN(CCO)CC2)n1 [Dasatinib] (partner 0.075 µM) ?
0.516

Data origin: the supplement of paper PMC10307832
